# ASSAY: Cytotoxicity, neutral red uptake, HepG2
# Type: cell-based
# MEASUREMENT PARAMETERS: human; 48 h, neutral red uptake; read-out: Cytotoxicity (CC50) HepG2
PROPERTY: CC50 at 48 h

[
  {
    "MOLECULE": "O=C(CCCn1cncn1)N1CCCC(c2nc3ccccc3s2)C1 (stereo not shown) [ZINC23398144]",
    "READOUT VALUE": "> 100 µM"
  },
  {
    "MOLECULE": "O=C(Cn1c(=O)[nH]c2c(-c3ccccc3)c[nH]c2c1=O)NCc1cccnc1 [ZINC33037945]",
    "READOUT VALUE": "> 100 µM"
  },
  {
    "MOLECULE": "Nc1ncnc2c1ncn2[C@@H]1O[C@H](C[C@@H](N)CC[C@H](N)C(=O)O)[C@@H](O)[C@H]1O [Sinefungin, reference compound]",
    "READOUT VALUE": "> 100 µM"
  }
]

Let's switch to this molecule now.
Sure, the documented CC50 at 48 h for O=C(Cc1csc(SCC(=O)c2ccccc2)n1)Nc1cccc2nsnc12 [ZINC38661771] is 93.8 µM
